Collected from the literature: IC50 of various compounds toward Prostaglandin G/H synthase 1 (Ovis aries, UniProt P05979).
Returns the class for an entry based on its IC50. Class ranges: LOW: < 3 µM; MID: ≥ 3 µM and < 80 µM; HIGH: ≥ 80 µM

Ask: Class label required: CS(=O)(=O)c1ccc(-c2cccnc2-c2ccccc2)cc1
Result: HIGH

Ask: Lab log: COc1ccc2c(c1)c(CC(=O)N[C@@H](C)CO)c(C)n2C(=O)c1ccc(Cl)cc1 — assign IC50 category
Result: LOW

Ask: Class for CC(C)(C)c1cc(-c2nnc(N=C(N)N)s2)cc(C(C)(C)C)c1O ?
Result: HIGH

Ask: Hi there! Could you help me figure out the category for CS(=O)(=O)c1ccc(/C=C(/C(=O)O)c2ccc(F)cc2)cc1 please?
Result: LOW

Ask: Into which bin does this compound go? CS(=O)(=O)c1ccc(C(=O)c2ccc(Br)cc2)cc1
Result: HIGH

Ask: Kindly state the category for this compound: COc1cc(-c2oc3c(OC)cc(C=O)cc3c2C)cc(OC)c1OC
Result: HIGH

Ask: # bin label for COC1(c2cccc(COc3ccc(Cl)cc3OCc3ccccc3)c2)CCOCC1
Result: HIGH

Ask: Which category does the recorded IC50 put COc1ccc(-c2c(-c3ccc(F)cc3)noc2N)cc1 in?
Result: MID

Ask: Lab log: COc1ccc(/C=N/n2c(S)nnc2-c2ccccc2S(=O)(=O)NCc2ccccc2)cc1 — assign IC50 category
Result: MID

Ask: Which band does CC(C)c1cccc(-c2ccc(C(C)C(=O)O)cc2F)c1 (configuration not stated) fall in?
Result: MID

Ask: Lab note: which band did C=Cc1onc(-c2ccc(OC)cc2)c1-c1ccc(OC)cc1 land in?
Result: LOW

Ask: Pick a category. Item: CC(=O)Nc1ccc(OC(=O)c2c(-c3ccccc3)sc3c2CCCC3)cc1
Result: MID

Ask: GET /class?item= CS(=O)(=O)c1ccc(-c2c(-c3ccc(F)cc3)noc2C(=O)c2ccccc2)cc1
Result: HIGH

Ask: Class? Entry: COc1ccc(-c2noc(CBr)c2-c2ccc(OC)cc2)cc1
Result: LOW

Ask: Pick a category. Item: COc1ccc(C2=C(c3ccc(C(F)(F)F)cc3)C(=O)OC2)cc1
Result: LOW

Ask: Looking at CCSc1ncc(-c2ccc(S(C)(=O)=O)cc2)n1-c1ccc(Cl)cc1 , which class would you pick?
Result: LOW

Ask: Category of CCCC/C(=C(\c1ccccc1)c1ccc(OCCF)cc1)c1ccc(S(C)(=O)=O)cc1 , please.
Result: HIGH

Ask: // bin(item) where item = Clc1ccc(/C=N/Nc2nnc(-c3ccncc3)o2)cc1
Result: MID

Ask: Input O=C1NCc2cc(O)cnc2N1 ; output its category
Result: HIGH

Ask: In plain terms, what class is CCC(C)[C@@H](CO)NC(=O)Cc1c(C)n(C(=O)c2ccc(Cl)cc2)c2ccc(OC)cc12 (some centres not stated) ?
Result: LOW

Ask: Which IC50 band matches C=CCc1cc2c(cc1O)O[C@H](c1ccc3c(c1)OCO3)[C@H]2C ?
Result: HIGH

Ask: Dear colleague, I would appreciate it if you could identify the bin for Cc1ccc(Cl)c(Nc2ccccc2C(=O)NCCO)c1Cl and reply at your convenience.
Result: LOW

Ask: Form: Item = CC1=C/C(=C2\C(=O)N(c3ccccc3)N=C2C)OC(=O)N1c1ccc(Cl)cc1 ; Class = ?
Result: HIGH

Ask: Using the reported IC50, which band applies to CS(=O)(=O)Nc1ccc(-c2cc(C(F)(F)F)nn2-c2ccc(Br)cc2)cc1 ?
Result: MID

Ask: For this compound, which bin applies? N#Cc1c(N=Cc2ccc3ccccc3c2)c(C(=O)Nc2ccc(Cl)cc2)n2c1CCC2
Result: MID

Ask: Form field 'band' for CS(=O)(=O)c1ccc(-c2nnnn2-c2ccccc2)cc1
Result: HIGH

Ask: Bin? O=C1NC(=O)/C(=C/c2ccc(OCc3cn(CC(=O)c4ccc(Br)cc4)nn3)cc2)S1
Result: MID

Ask: Which of the defined bands does the recorded IC50 of CS(=O)(=O)c1ccc(-c2ccsc2-c2ccc(O)cc2)cc1 sit within?
Result: HIGH

Ask: Which of the defined bands does the recorded IC50 of CS(=O)(=O)c1ccc(-c2nc3ccccc3cc2-c2ccccc2)cc1 sit within?
Result: MID

Ask: Into which category would you place CCO/C=N/c1nnc(-c2ccccc2)o1 ?
Result: MID

Ask: Which bin should I file CS(=O)(=O)c1cccc(C#Cc2ccncc2)c1 under?
Result: HIGH

----------
- Measurement target: Prostaglandin G/H synthase 1 (Ovis aries)
- Sequence (P05979 whole entry): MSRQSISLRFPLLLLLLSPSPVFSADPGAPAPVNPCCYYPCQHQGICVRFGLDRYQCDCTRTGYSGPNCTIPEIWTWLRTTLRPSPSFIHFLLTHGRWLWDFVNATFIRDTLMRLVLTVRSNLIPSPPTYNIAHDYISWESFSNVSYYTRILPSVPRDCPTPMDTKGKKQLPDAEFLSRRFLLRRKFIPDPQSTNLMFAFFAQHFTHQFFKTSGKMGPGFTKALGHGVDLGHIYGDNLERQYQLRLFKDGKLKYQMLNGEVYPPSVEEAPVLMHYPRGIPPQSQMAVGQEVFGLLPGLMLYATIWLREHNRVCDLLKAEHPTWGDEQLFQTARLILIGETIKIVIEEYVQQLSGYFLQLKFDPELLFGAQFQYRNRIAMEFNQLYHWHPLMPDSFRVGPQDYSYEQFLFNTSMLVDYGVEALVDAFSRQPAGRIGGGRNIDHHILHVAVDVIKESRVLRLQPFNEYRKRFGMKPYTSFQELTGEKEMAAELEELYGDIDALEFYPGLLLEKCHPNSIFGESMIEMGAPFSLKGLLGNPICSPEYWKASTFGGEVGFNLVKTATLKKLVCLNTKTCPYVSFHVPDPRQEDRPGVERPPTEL
Assay read-out IC50 on Prostaglandin G/H synthase 1 (Ovis aries); records merged from the literature.
Report the figure in µM without appending any unit label.

Ask: Report IC50 for CC(C)(C)c1cc(-c2nc(=O)s[nH]2)cc(C(C)(C)C)c1O please.
Result: 83

Ask: Dear colleague, I am looking for the recorded IC50 of the following compound: Cc1ccc(S(=O)(=O)n2cc(C(=O)C(=O)NCC(=O)N[C@H](Cc3c[nH]c4ccccc34)C(=O)O)c3ccccc32)cc1
Result: 98.3

Ask: IC50 lookup needed for N#Cc1ccc(C2=C(c3ccnc(F)c3)C(=O)OC2)cc1 , thanks.
Result: 4.4

Ask: What IC50 value was documented for this compound, CCCCN1C(=O)CCSC1c1ccc(S(C)(=O)=O)cc1 (stereo not given) ?
Result: 14.8

Ask: Value lookup for IC50; key = COc1cc(/C=C2\S/C(=N/c3nnc(C)s3)NC2=O)cc(OC)c1OC
Result: 12.3

----------
- Measurement target: Prostaglandin G/H synthase 1 (Ovis aries, UniProt P05979)
- Sequence (P05979 whole entry): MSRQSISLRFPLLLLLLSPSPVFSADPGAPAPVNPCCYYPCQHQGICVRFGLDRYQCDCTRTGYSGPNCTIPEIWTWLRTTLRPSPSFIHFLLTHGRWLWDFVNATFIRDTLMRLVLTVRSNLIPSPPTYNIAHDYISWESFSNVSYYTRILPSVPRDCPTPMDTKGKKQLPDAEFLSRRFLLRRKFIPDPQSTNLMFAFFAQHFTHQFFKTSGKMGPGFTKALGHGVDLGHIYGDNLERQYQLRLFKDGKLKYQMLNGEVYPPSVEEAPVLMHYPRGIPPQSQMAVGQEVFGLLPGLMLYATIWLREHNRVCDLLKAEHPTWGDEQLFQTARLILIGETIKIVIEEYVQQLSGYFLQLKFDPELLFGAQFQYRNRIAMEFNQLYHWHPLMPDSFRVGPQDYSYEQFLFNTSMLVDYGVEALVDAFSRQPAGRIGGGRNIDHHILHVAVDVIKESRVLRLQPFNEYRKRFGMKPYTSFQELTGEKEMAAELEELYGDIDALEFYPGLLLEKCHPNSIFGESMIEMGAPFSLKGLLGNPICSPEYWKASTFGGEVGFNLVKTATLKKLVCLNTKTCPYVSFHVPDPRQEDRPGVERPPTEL
// cross-study collection: pIC50 for Prostaglandin G/H synthase 1 (Ovis aries, UniProt P05979)
// pIC50 here means minus log10 of the molar concentration (mol/L)

Ask: For the compound shown here, COC1(c2cccc(CS(=O)(=O)Nc3cc(Cl)ccc3OCc3ccccc3)c2)CCOCC1 , give the reported pIC50.
Result: 4.81

Ask: So what's the measured pIC50 for this one? NS(=O)(=O)c1ccc(-n2nc(-c3ccc(F)cc3O)nc2-c2ccc(F)cc2O)cc1
Result: 4.58

Ask: Field request: pIC50 | item: CS(=O)(=O)c1ccc(/C=C(/C(=O)O)c2ccc(Br)cc2)cc1
Result: 6.06

Ask: Reported pIC50, compound O=C(Nc1ccc(Cl)cc1)c1ccc(O)nc1 : ____
Result: 5.04

Ask: For COc1cc(C2CC(c3cccs3)=NN2c2ccc(S(N)(=O)=O)cc2)cc(OC)c1OC (stereo not given) , what is its reported pIC50?
Result: 4.87

Ask: # lookup: pIC50 of O=C(NC1CCCCC1)Nn1c(CO[N+](=O)[O-])nc2ccccc2c1=O
Result: 4.46

Ask: // pIC50 lookup, key: CS(=O)(=O)c1ccc(-n2nc(C(F)(F)F)cc2-c2ccn(O)c(=O)c2)cc1
Result: 4.88

Ask: Any idea what its pIC50 is? The compound is O=S(=O)(NCc1ccccc1)c1ccccc1-c1nnc(SCc2ccccc2)o1
Result: 5.43

Ask: For the compound CS(=O)(=O)c1ccc(-c2nc3ccccc3c(N)c2-c2ccccc2)cc1 , what pIC50 is on record?
Result: 4.84

Ask: For the compound shown here, CCOc1ccc(-c2cc(-c3ccc(F)cc3)c(-c3ccc(S(C)(=O)=O)cc3)c(=O)o2)cc1 , give the reported pIC50.
Result: 5.49

Ask: State the recorded pIC50 for this entry: COc1cc(-c2cc(C(=O)CCCOc3ccc4ccc(=O)oc4c3)nn2-c2ccccc2)cc(OC)c1OC
Result: 4.28
